Ref: ChEMBL document CHEMBL1201862

system: LOX IMVI; assay: NCI tumour cell line growth inhibition, 48 h
The source made the active and inactive calls. No stated cut-off is given here; in the data, active = GI50 up to about 1.1 µM and inactive = higher.
Metric name: GI50

[in] Endpoint output: GI50 of CC(C)C(=O)OCC1CCCN2CCCCC12 (configuration not stated) . Value?
[out] 82 µM (inactive)

[in] Endpoint output: GI50 of O=[N+]([O-])C(=C(Nc1ccccc1)Nc1ccccc1)/C(Cl)=C(\Cl)Br . Value?
[out] 3.27 µM (inactive)

[in] Endpoint output: GI50 of COC(=O)[C@@H](O)[C@]1(C(=O)OC)C2O[C@@H](OC)[C@@H]1CCCCCC[C@H]2O . Value?
[out] > 100 µM (inactive)

[in] Endpoint output: GI50 of O=C1OC2CC=CC1C2 (configuration not stated) . Value?
[out] > 100 µM (inactive)

[in] Endpoint output: GI50 of Cc1ccc(SSc2ccc(C)cc2C(=O)O)c(C(=O)O)c1 . Value?
[out] > 100 µM (inactive)

[in] Endpoint output: GI50 of COc1ccc(NC(=S)NNC(=O)c2nsc3ccccc23)cc1 . Value?
[out] 34.4 µM (inactive)

[in] Endpoint output: GI50 of CS(=O)(=O)OCC1OC(n2ccc(NC(=O)c3ccccc3)nc2=O)CC1OS(C)(=O)=O (configuration not stated) . Value?
[out] > 100 µM (inactive)

----------
tested on: HL-60; experiment: NCI tumour cell line growth inhibition, 48 h
Active and inactive are the calls of the source. Rule as the data show it: active = GI50 up to about 1.1 µM and inactive = higher.
Metric name: GI50

[in] Endpoint output: GI50 of N=C1/C(=C/c2ccco2)C(=O)N=C2SC=NN12 . Value?
[out] > 100 µM (inactive)

[in] Endpoint output: GI50 of CN(C)CC(C)(C)C(=O)/C=C/c1ccc(/C=C/C(=O)C(C)(C)CN(C)C)cc1 . Value?
[out] 1.61 µM (inactive)

[in] Endpoint output: GI50 of O=C1CC(C(=O)O)Cc2c(Br)ccc(O)c21 (stereo not drawn) . Value?
[out] > 100 µM (inactive)

----------
test system: NCI-H23; experiment: NCI tumour cell line growth inhibition, 48 h
Activity calls are given as the source filed them. Rule as the data show it: active = GI50 up to about 1.1 µM and inactive = higher.
Returns: one label drawn from active, inactive

[in] Give the logged outcome of this assay for the following compound: CCCCc1cc2c(cc1O)CCC1C2CC[C@@]2(C)C1CC[C@@H]2O (stereo partly specified)
[out] inactive

[in] Give the logged outcome of this assay for the following compound: O=C(/C=C/c1ccccc1)CCN1CCOCC1
[out] inactive

[in] Give the logged outcome of this assay for the following compound: O=C1OC(c2ccccc2)=N/C1=C\c1cccc2ccccc12
[out] inactive

[in] Give the logged outcome of this assay for the following compound: C=C(c1ccc2[nH]c(NC(=O)OC)nc2c1)c1cccs1
[out] active

[in] Give the logged outcome of this assay for the following compound: CC(=O)NC(CS/N=N/c1[nH]cnc1C(N)=O)C(=O)O (stereo unspecified)
[out] inactive

[in] Give the logged outcome of this assay for the following compound: CC(C#N)c1cn(S(=O)(=O)c2ccccc2)c2ccccc12 (stereo unspecified)
[out] inactive

[in] Give the logged outcome of this assay for the following compound: C/C(=N\N(C)C)C(CN(C)C)C(c1ccccc1)c1c(O)c2ccccc2oc1=O (stereo unspecified)
[out] inactive

[in] Give the logged outcome of this assay for the following compound: Cn1c(=O)c2c(nc3n(Cc4ccccc4)c(=O)c(NCCCBr)cn23)n(C)c1=O
[out] inactive

[in] Give the logged outcome of this assay for the following compound: CCC/N=C/c1c(O)c(O)c(C(C)C)c2cc(C)c(-c3c(C)cc4c(C(C)C)c(O)c(O)c(/C=N/CCC)c4c3O)c(O)c12
[out] inactive

[in] Give the logged outcome of this assay for the following compound: O=NN(CCCl)C(=O)Nc1ccc(Cl)c(Cl)c1
[out] inactive

[in] Give the logged outcome of this assay for the following compound: CCc1c(O)nc(Nc2nc3ccccc3[nH]2)[nH]c1=O
[out] inactive

[in] Give the logged outcome of this assay for the following compound: Cc1ccc2c(c1)nc1n2C(c2c(F)cccc2F)SC1 (stereo unspecified)
[out] inactive

[in] Give the logged outcome of this assay for the following compound: FC1OC2OC1C(OCc1ccccc1)C(OCc1ccccc1)C2OCc1ccccc1 (stereo unspecified)
[out] inactive

[in] Give the logged outcome of this assay for the following compound: CC(C)C(=O)OCC1CCCN2CCCCC12 (stereo unspecified)
[out] inactive

[in] Give the logged outcome of this assay for the following compound: Cc1ccc(SSc2ccc(C)cc2C(=O)O)c(C(=O)O)c1
[out] inactive

[in] Give the logged outcome of this assay for the following compound: CC(=O)Nc1ccc2oc(=O)c3ccccc3c2c1
[out] inactive

----------
system: IGROV-1; experiment: NCI tumour cell line growth inhibition, 48 h
Activity calls are given as the source filed them. Cut-off read from the data, not from the text of the source: active = GI50 up to about 1.1 µM and inactive = higher.
Metric name: GI50

[in] Endpoint output: GI50 of CC(C)(C)C(=O)O[C@H]1C=C[C@@H](O)[C@@H]2[C@H]1[C@@H]1C=C[C@H]2C1 . Value?
[out] 3.06 µM (inactive)

[in] Endpoint output: GI50 of N#Cc1c(-c2ccc([N+](=O)[O-])cc2)cc(-c2ccc(Nc3ccnc4cc(C(F)(F)F)ccc34)cc2)[nH]c1=O . Value?
[out] > 100 µM (inactive)

[in] Endpoint output: GI50 of O=C(Cc1nc2ccccc2o1)C(=O)Nc1ccccc1C(F)(F)F . Value?
[out] > 100 µM (inactive)

[in] Endpoint output: GI50 of CC(=O)OCC1(C)C(OC(C)=O)CCC2(C)C(CC(OC(C)=O)C3=CCOC3=O)C(O)(CO)CCC12 (configuration not stated) . Value?
[out] > 100 µM (inactive)

[in] Endpoint output: GI50 of C(/C=N/N=C1NCCCCN1)=N\N=C1NCCCCN1 . Value?
[out] > 100 µM (inactive)

[in] Endpoint output: GI50 of CC(=O)NC(CCCCNC(=O)OC(C)(C)C)C(=O)O (configuration not stated) . Value?
[out] > 100 µM (inactive)

[in] Endpoint output: GI50 of C=C(CC(NC(=O)c1ccc(C(CC)Cc2cnc3nc(N)nc(N)c3n2)cc1)C(=O)O)C(=O)O (configuration not stated) . Value?
[out] 0.0274 µM (active)

[in] Endpoint output: GI50 of CSc1nc2ccccc2c(=O)n1-c1cccc(C)c1 . Value?
[out] 39.2 µM (inactive)

[in] Endpoint output: GI50 of Cn1c2ccccc2c(=S)c2ccccc21 . Value?
[out] > 100 µM (inactive)

[in] Endpoint output: GI50 of COc1ccc2c(c1)[n+]([O-])c(C(N)=O)c(N)[n+]2[O-] . Value?
[out] 75.7 µM (inactive)

[in] Endpoint output: GI50 of Cn1c(=O)oc2cc(C(O)CN3CCN(Cc4ccc5c(c4)OCO5)CC3)ccc21 (configuration not stated) . Value?
[out] > 100 µM (inactive)

[in] Endpoint output: GI50 of Nc1ccc(C(=O)N/C(=C\C=C\c2ccco2)c2nc3c(O)nc(S)nc3[nH]2)cc1 . Value?
[out] > 100 µM (inactive)

[in] Endpoint output: GI50 of c1ccc2[nH]c3nc4ccccc4c-3cc2c1 . Value?
[out] 0.286 µM (active)

[in] Endpoint output: GI50 of N=C1/C(=C/c2ccco2)C(=O)N=C2SC=NN12 . Value?
[out] > 100 µM (inactive)

[in] Endpoint output: GI50 of CC(C#N)c1cn(S(=O)(=O)c2ccccc2)c2ccccc12 (configuration not stated) . Value?
[out] 78.5 µM (inactive)

[in] Endpoint output: GI50 of NC(=O)NC12CC3CC(CC(F)(C3)C1)C2 . Value?
[out] > 100 µM (inactive)

[in] Endpoint output: GI50 of Nc1nc(=O)[nH]cc1F . Value?
[out] > 100 µM (inactive)

[in] Endpoint output: GI50 of COc1ccc(/N=C/C=C/Nc2ccc(OC)cc2)cc1 . Value?
[out] 11.6 µM (inactive)

[in] Endpoint output: GI50 of CC(=O)Oc1c2c(c(O)c3ccccc13)C(n1cnc3c(ncn3C3OC(CO)C4OC(C)(C)OC43)c1=N)CCC2 (configuration not stated) . Value?
[out] 20.2 µM (inactive)

[in] Endpoint output: GI50 of CSc1nc(SC)c2ncn(C3CC(Oc4ccc(C)cc4)C(COc4ccc(C)cc4)O3)c2n1 (configuration not stated) . Value?
[out] > 100 µM (inactive)

[in] Endpoint output: GI50 of COC(=O)c1cc2c(cc1Cl)Sc1nnc(Nc3ccccc3)n1S2(=O)=O . Value?
[out] 0.351 µM (active)

[in] Endpoint output: GI50 of NC1=NC(=O)C(CC(=O)Nc2ccc([N+](=O)[O-])cc2[N+](=O)[O-])S1 (configuration not stated) . Value?
[out] > 100 µM (inactive)

[in] Endpoint output: GI50 of COCOc1cc(OC)ccc1C/C=N/O . Value?
[out] > 100 µM (inactive)

[in] Endpoint output: GI50 of c1cc(C[S+]2CCCC2)oc1C[S+]1CCCC1 . Value?
[out] > 100 µM (inactive)

[in] Endpoint output: GI50 of CC1(C)COC(c2cccc(C3=NC(C)(C)CO3)c2)=N1 . Value?
[out] > 100 µM (inactive)

[in] Endpoint output: GI50 of C=C(c1ccc2[nH]c(NC(=O)OC)nc2c1)c1cccs1 . Value?
[out] 0.371 µM (active)

[in] Endpoint output: GI50 of CCc1c(O)nc(Nc2nc3ccccc3[nH]2)[nH]c1=O . Value?
[out] > 100 µM (inactive)

[in] Endpoint output: GI50 of CCN(CC)CC(C)C(=O)/C=C/c1ccc(C)cc1 (configuration not stated) . Value?
[out] 2.2 µM (inactive)

[in] Endpoint output: GI50 of C=C1C(=O)O[C@@H]2/C=C(\C)CC/C=C(\C)CC[C@@]12O . Value?
[out] 3.52 µM (inactive)

[in] Endpoint output: GI50 of CCC(=O)c1cn(C)c(=O)c2ccccc12 . Value?
[out] > 100 µM (inactive)

[in] Endpoint output: GI50 of O=C1c2ccccc2C(=O)N1CCc1ncc[nH]1 . Value?
[out] > 100 µM (inactive)

[in] Endpoint output: GI50 of OCC1c2ccccc2-n2nc(-c3ccccc3)c(O)c21 (configuration not stated) . Value?
[out] 36.2 µM (inactive)

[in] Endpoint output: GI50 of O/N=C(\C(=N/O)Nc1ccc(-c2ccc(NC(=N/O)/C(=N\O)c3ccccc3)cc2)cc1)c1ccccc1 . Value?
[out] 25.1 µM (inactive)

[in] Endpoint output: GI50 of O=C(O)CN1CCN2CCOCCOCCN(CC1)CCN(CC(=O)O)CC2 . Value?
[out] > 100 µM (inactive)

[in] Endpoint output: GI50 of [N-]=[N+]=CC(=O)CCC(N)C(=O)O (configuration not stated) . Value?
[out] 1.92 µM (inactive)

[in] Endpoint output: GI50 of COc1ccc2c(C(=O)O)cc3cc(OC)c(OC)cc3c2c1 . Value?
[out] > 100 µM (inactive)

[in] Endpoint output: GI50 of CCOP(=O)(OCC)C(=C1C=C(C(C)(C)C)C(=O)C(C(C)(C)C)=C1)P(=O)(OCC)OCC . Value?
[out] > 10 µM (inactive)

[in] Endpoint output: GI50 of O=C(NCC(O)CNC(=O)C(F)(F)F)C(F)(F)F . Value?
[out] > 100 µM (inactive)

[in] Endpoint output: GI50 of O=C1C(Cl)=C(Oc2ccc([N+](=O)[O-])cc2)C(=O)c2c(O)ccc(O)c21 . Value?
[out] > 100 µM (inactive)

[in] Endpoint output: GI50 of CN(C)c1ccc(C2CC(c3ccc4ccccc4c3O)=NN2)cc1 (configuration not stated) . Value?
[out] 24.9 µM (inactive)

[in] Endpoint output: GI50 of O=S(=O)(O)CS(=O)(=O)OCCCl . Value?
[out] > 100 µM (inactive)

[in] Endpoint output: GI50 of [O-][S+]1c2ccccc2N=C(c2cccs2)CC1c1ccccc1O (configuration not stated) . Value?
[out] 16.5 µM (inactive)
